PROTOCOL DESCRIPTION: CCTE_Mundy_HCI_Cortical_Synap_Neur_Matur_NeuriteSpotCountPerNeuron: CCTE's Synaptogenesis and Neurite Maturation Assay in rat cortical cells for Neurite Spot Count per Neuron Count, Mundy Lab (AID 2284215)
Method: CCTE_Mundy_HCI_Cortical_Synap&Neurite_Matur is a multiplexed, cell-based-readout assay that uses rat primary cortical cells with measurements taken at 288.33 hours after chemical dosing in a microplate: 96-well plate.CCTE_Mundy_HCI_Cortical_Synap_Neur_Matur_NeuriteSpotCountPerNeuron is one of eight components of the CCTE_Mundy_HCI_Cortical_Synap&Neurite_Matur assay. […]
Activity calls are given as the source filed them. The calls were made as follows: active = hit-call score of the fitted dose curve at least 0.9, where 1 is the maximum; inactive = score below 0.9.
Outcomes: 1.0 = active, 0.0 = inactive

>  <MOLECULE>
CN1COCN(Cc2cnc(Cl)s2)C1=N[N+](=O)[O-]

>  <CLASS>
0.0

$$$$
>  <MOLECULE>
C[N+]1(C)CCCCC1

>  <CLASS>
0.0

$$$$
>  <MOLECULE>
COP(=O)(NC(C)=O)SC (stereo unspecified)

>  <CLASS>
0.0

$$$$
>  <MOLECULE>
CCOP(=S)(OCC)Oc1ccc([N+](=O)[O-])cc1

>  <CLASS>
1.0

$$$$
>  <MOLECULE>
CCOP(=O)(NC(C)C)Oc1ccc(SC)c(C)c1 (stereo unspecified)

>  <CLASS>
0.0

$$$$
>  <MOLECULE>
CC1=NNC(=O)N(/N=C/c2cccnc2)C1

>  <CLASS>
0.0

$$$$

###

Read-out: Interleukin-6 (IL6), IL6 (gene 3569)
PROTOCOL DESCRIPTION: BSK_CASM3C_IL6: BioMAP Diversity Plus: CASM3C Assay for Interleukin-6 (IL6) Biomarker Activity for (AID 2283040)
PROTOCOL CONDITIONS: primary human coronary artery smooth muscle cells; actives raise or lower the signal
Calls of active or inactive are those of the source. The calls were made as follows: active = hit-call score of the fitted dose curve at least 0.9, where 1 is the maximum; inactive = score below 0.9.
Possible outcomes: 1.0 (active), 0.0 (inactive)

>  <MOLECULE>
CCOP(=O)(NC(C)C)Oc1ccc(SC)c(C)c1 (stereo not given)

>  <CLASS>
0.0

$$$$
>  <MOLECULE>
CSC1=N[C@@](C)(c2ccccc2)C(=O)N1Nc1ccccc1

>  <CLASS>
0.0

$$$$
>  <MOLECULE>
CCOP(=S)(Oc1cnc(C(C)(C)C)nc1)OC(C)C (stereo not given)

>  <CLASS>
0.0

$$$$
>  <MOLECULE>
C#CCC1=C(C)C(OC(=O)C2C(C=C(C)C)C2(C)C)CC1=O (stereo not given)

>  <CLASS>
0.0

$$$$
>  <MOLECULE>
COc1cccc(C(=O)NN(C(=O)c2cc(C)cc(C)c2)C(C)(C)C)c1C

>  <CLASS>
0.0

$$$$
>  <MOLECULE>
CCOP(=S)(OCC)OC(Cl)C(Cl)(Cl)Cl (stereo not given)

>  <CLASS>
1.0

$$$$
>  <MOLECULE>
CCNc1nc(Cl)nc(NC(C)(C)C#N)n1

>  <CLASS>
0.0

$$$$
>  <MOLECULE>
CSc1nnc(C(C)(C)C)c(=O)n1N

>  <CLASS>
0.0

$$$$
>  <MOLECULE>
CC[C@H](C)[C@H]1O[C@]2(C=C[C@@H]1C)C[C@@H]1C[C@@H](C/C=C(\C)[C@@H](O[C@H]3C[C@H](OC)[C@@H](O[C@H]4C[C@H](OC)[C@@H](NC)[C@H](C)O4)[C@H](C)O3)[C@@H](C)/C=C/C=C3\CO[C@@H]4[C@H](O)C(C)=C[C@@H](C(=O)O1)[C@]34O)O2

>  <CLASS>
0.0

$$$$
>  <MOLECULE>
O=c1ccc(=O)[nH][nH]1

>  <CLASS>
0.0

$$$$

Data provenance is PubChem BioAssay (EPA / NIEHS).
